Let's look at some sequences and their measured shrunken log2 fold change.
test system: Escherichia coli TOP10; test: shrunken log2 fold change of peptide-encoding DNA abundance (4.5 h post-induction vs induction); higher = less antimicrobial activity (less host growth inhibition); details: time post-induction: 4.5 h; library: site-saturation at positions 5, 18, 19, 20

# count of solved cases: 10
Incoming: // fetch shrunken log2 fold change given entry RRIRIRPPRLPRPRPRPFLLPRP
Outgoing: -0.563

Incoming: // fetch shrunken log2 fold change given entry RRIRSRPPRLPRPRPRPNREPRP
Outgoing: -0.138

Incoming: // fetch shrunken log2 fold change given entry RRIRYRPPRLPRPRPRPGFHPRP
Outgoing: -0.564

Incoming: // fetch shrunken log2 fold change given entry RRIRYRPPRLPRPRPRPMMWPRP
Outgoing: 0.00408

Incoming: // fetch shrunken log2 fold change given entry RRIRKRPPRLPRPRPRPNTQPRP
Outgoing: -0.0781

Incoming: // fetch shrunken log2 fold change given entry RRIRCRPPRLPRPRPRPTEQPRP
Outgoing: -0.304

Incoming: // fetch shrunken log2 fold change given entry RRIRQRPPRLPRPRPRPGEVPRP
Outgoing: -0.102

Incoming: // fetch shrunken log2 fold change given entry RRIRGRPPRLPRPRPRPAYEPRP
Outgoing: 0.457

Incoming: // fetch shrunken log2 fold change given entry RRIRRRPPRLPRPRPRPALNPRP
Outgoing: 0.248

Incoming: // fetch shrunken log2 fold change given entry RRIRGRPPRLPRPRPRPMGWPRP
Outgoing: 0.967

Next item in the queue.
Incoming: // fetch shrunken log2 fold change given entry RRIRQRPPRLPRPRPRPKPVPRP
Outgoing: 0.407

====

tested on: Escherichia coli TOP10; assay: shrunken log2 fold change of peptide-encoding DNA abundance (4.5 h post-induction vs induction); higher = less antimicrobial activity (less host growth inhibition); conditions: time post-induction: 4.5 h; library: site-saturation at positions 5, 18, 19, 20
Let's look at some sequences and their measured shrunken log2 fold change.
No unit in the answer, only the number.

# count of solved cases: 10
Incoming: // fetch shrunken log2 fold change given entry RRIRWRPPRLPRPRPRPCQAPRP
Outgoing: 0.201

Incoming: // fetch shrunken log2 fold change given entry RRIRSRPPRLPRPRPRPPSLPRP
Outgoing: -0.119

Incoming: // fetch shrunken log2 fold change given entry RRIRYRPPRLPRPRPRPYTDPRP
Outgoing: -0.396

Incoming: // fetch shrunken log2 fold change given entry RRIRVRPPRLPRPRPRPWIFPRP
Outgoing: -0.389

Incoming: // fetch shrunken log2 fold change given entry RRIRVRPPRLPRPRPRPFSLPRP
Outgoing: -0.348

Incoming: // fetch shrunken log2 fold change given entry RRIRVRPPRLPRPRPRPCYDPRP
Outgoing: 0.0557

Incoming: // fetch shrunken log2 fold change given entry RRIRERPPRLPRPRPRPILQPRP
Outgoing: -0.518

Incoming: // fetch shrunken log2 fold change given entry RRIRNRPPRLPRPRPRPNHNPRP
Outgoing: -0.858

Incoming: // fetch shrunken log2 fold change given entry RRIRGRPPRLPRPRPRPQAVPRP
Outgoing: 0.295

Incoming: // fetch shrunken log2 fold change given entry RRIRDRPPRLPRPRPRPRAAPRP
Outgoing: 0.609

Others:
Incoming: // fetch shrunken log2 fold change given entry RRIRFRPPRLPRPRPRPPDPPRP
Outgoing: 0.571

Incoming: // fetch shrunken log2 fold change given entry RRIRHRPPRLPRPRPRPENKPRP
Outgoing: -0.639

====

tested on: Escherichia coli TOP10; test: shrunken log2 fold change of peptide-encoding DNA abundance (4.5 h post-induction vs induction); higher = less antimicrobial activity (less host growth inhibition); settings: time post-induction: 4.5 h; library: site-saturation at positions 5, 18, 19, 20
# class assignment by measured shrunken log2 fold change: low value (below -0.1), medium value (-0.1 to below 0.04), high value (0.04 or more)

Worked examples, 3 sequences total:
Incoming: Using the reported shrunken log2 fold change, which band applies to RRIRRRPPRLPRPRPRPCRMPRP ?
Outgoing: high value

Incoming: Using the reported shrunken log2 fold change, which band applies to RRIRARPPRLPRPRPRPFPRPRP ?
Outgoing: high value

Incoming: Using the reported shrunken log2 fold change, which band applies to RRIRGRPPRLPRPRPRPHAPPRP ?
Outgoing: high value

Others:
Incoming: Using the reported shrunken log2 fold change, which band applies to RRIRLRPPRLPRPRPRPPNLPRP ?
Outgoing: low value

Incoming: Using the reported shrunken log2 fold change, which band applies to RRIRYRPPRLPRPRPRPDILPRP ?
Outgoing: medium value

Incoming: Using the reported shrunken log2 fold change, which band applies to RRIRWRPPRLPRPRPRPTQDPRP ?
Outgoing: high value

Incoming: Using the reported shrunken log2 fold change, which band applies to RRIRLRPPRLPRPRPRPLIFPRP ?
Outgoing: low value

Incoming: Using the reported shrunken log2 fold change, which band applies to RRIRYRPPRLPRPRPRPTLKPRP ?
Outgoing: low value

Incoming: Using the reported shrunken log2 fold change, which band applies to RRIRCRPPRLPRPRPRPTGCPRP ?
Outgoing: medium value

Incoming: Using the reported shrunken log2 fold change, which band applies to RRIRCRPPRLPRPRPRPSEHPRP ?
Outgoing: low value

Incoming: Using the reported shrunken log2 fold change, which band applies to RRIRLRPPRLPRPRPRPQTLPRP ?
Outgoing: medium value

Incoming: Using the reported shrunken log2 fold change, which band applies to RRIRFRPPRLPRPRPRPHCHPRP ?
Outgoing: low value

Incoming: Using the reported shrunken log2 fold change, which band applies to RRIRDRPPRLPRPRPRPQNYPRP ?
Outgoing: low value

Incoming: Using the reported shrunken log2 fold change, which band applies to RRIRQRPPRLPRPRPRPDIPPRP ?
Outgoing: low value

Incoming: Using the reported shrunken log2 fold change, which band applies to RRIRNRPPRLPRPRPRPFKCPRP ?
Outgoing: medium value

Incoming: Using the reported shrunken log2 fold change, which band applies to RRIRQRPPRLPRPRPRPLMSPRP ?
Outgoing: medium value

Incoming: Using the reported shrunken log2 fold change, which band applies to RRIRQRPPRLPRPRPRPRVRPRP ?
Outgoing: high value

Incoming: Using the reported shrunken log2 fold change, which band applies to RRIRLRPPRLPRPRPRPTDGPRP ?
Outgoing: medium value

====

test system: Escherichia coli TOP10; test: shrunken log2 fold change of peptide-encoding DNA abundance (4.5 h post-induction vs induction); higher = less antimicrobial activity (less host growth inhibition); conditions: time post-induction: 4.5 h; library: site-saturation at positions 5, 18, 19, 20
VALUE TYPE: shrunken log2 fold change
No unit in the answer, only the number.

Incoming: // fetch shrunken log2 fold change given entry RRIRLRPPRLPRPRPRPNPCPRP
Outgoing: -0.398

Others:
Incoming: // fetch shrunken log2 fold change given entry RRIRQRPPRLPRPRPRPKLDPRP
Outgoing: 0.168

Incoming: // fetch shrunken log2 fold change given entry RRIRTRPPRLPRPRPRPHGVPRP
Outgoing: -0.00162

====

test system: Escherichia coli TOP10; test: shrunken log2 fold change of peptide-encoding DNA abundance (4.5 h post-induction vs induction); higher = less antimicrobial activity (less host growth inhibition); conditions: time post-induction: 4.5 h; library: site-saturation at positions 5, 18, 19, 20
# class assignment by measured shrunken log2 fold change: low band = under -0.08, middle band = from -0.08 up to 0.04, high band = 0.04 and over

Worked examples, 10 sequences total:
Incoming: Using the reported shrunken log2 fold change, which band applies to RRIRNRPPRLPRPRPRPEPKPRP ?
Outgoing: middle band

Incoming: Using the reported shrunken log2 fold change, which band applies to RRIRKRPPRLPRPRPRPIDHPRP ?
Outgoing: middle band

Incoming: Using the reported shrunken log2 fold change, which band applies to RRIRLRPPRLPRPRPRPVYIPRP ?
Outgoing: low band

Incoming: Using the reported shrunken log2 fold change, which band applies to RRIRIRPPRLPRPRPRPAIVPRP ?
Outgoing: low band

Incoming: Using the reported shrunken log2 fold change, which band applies to RRIRTRPPRLPRPRPRPERSPRP ?
Outgoing: high band

Incoming: Using the reported shrunken log2 fold change, which band applies to RRIRIRPPRLPRPRPRPIDNPRP ?
Outgoing: middle band

Incoming: Using the reported shrunken log2 fold change, which band applies to RRIRRRPPRLPRPRPRPFWQPRP ?
Outgoing: middle band

Incoming: Using the reported shrunken log2 fold change, which band applies to RRIRARPPRLPRPRPRPQMMPRP ?
Outgoing: high band

Incoming: Using the reported shrunken log2 fold change, which band applies to RRIRMRPPRLPRPRPRPRHMPRP ?
Outgoing: high band

Incoming: Using the reported shrunken log2 fold change, which band applies to RRIRTRPPRLPRPRPRPMDMPRP ?
Outgoing: middle band

Others:
Incoming: Using the reported shrunken log2 fold change, which band applies to RRIRCRPPRLPRPRPRPDLNPRP ?
Outgoing: high band

====

Let's look at some sequences and their measured shrunken log2 fold change.
system: Escherichia coli TOP10; test: shrunken log2 fold change of peptide-encoding DNA abundance (4.5 h post-induction vs induction); higher = less antimicrobial activity (less host growth inhibition); conditions: time post-induction: 4.5 h; library: site-saturation at positions 5, 18, 19, 20;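 note: peptides expressed intracellularly from a pBAD plasmid library in pooled LB shake-flask culture, induced with 0.3% L-arabinose, DNA abundance read by NGS, three biological replicates, DESeq2 with apeglm shrinkage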
No unit in the answer, only the number.

Incoming: // fetch shrunken log2 fold change given entry RRIRQRPPRLPRPRPRPLISPRP
Outgoing: -0.173

Others:
Incoming: // fetch shrunken log2 fold change given entry RRIRHRPPRLPRPRPRPPEFPRP
Outgoing: -0.0433

Incoming: // fetch shrunken log2 fold change given entry RRIRERPPRLPRPRPRPCHCPRP
Outgoing: -0.344

Incoming: // fetch shrunken log2 fold change given entry RRIRIRPPRLPRPRPRPWAHPRP
Outgoing: -0.923

Incoming: // fetch shrunken log2 fold change given entry RRIRYRPPRLPRPRPRPERIPRP
Outgoing: -0.21

Incoming: // fetch shrunken log2 fold change given entry RRIRNRPPRLPRPRPRPSIYPRP
Outgoing: -0.449

Incoming: // fetch shrunken log2 fold change given entry RRIRFRPPRLPRPRPRPKVCPRP
Outgoing: 0.0321

Incoming: // fetch shrunken log2 fold change given entry RRIRHRPPRLPRPRPRPPHRPRP
Outgoing: 0.198
